This collection of values is drawn from patent US20210186962A1.

# experiment: Pharmacokinetic studies (oral, intravenous, food effect)
# conditions: human, in vivo, iv
measurement kind: half-life

Using the record for `CN1CCN2c3c(cccc31)[C@@H]1CN(CCCC(=O)c3ccc(F)cc3)CC[C@@H]12` , report its half-life. ~18 h

---

# experiment: Pharmacokinetic studies (oral, intravenous, food effect)
# conditions: human, plasma, oral, median Tmax, in the presence of food
measurement kind: Tmax

Using the record for `CN1CCN2c3c(cccc31)[C@@H]1CN(CCCC(=O)c3ccc(F)cc3)CC[C@@H]12` , report its Tmax. 2 h

---

# experiment: Pharmacokinetic studies (oral, intravenous, food effect)
# conditions: human, plasma, oral, median Tmax, fasted state
measurement kind: Tmax
// unit must come after the numeric part

Using the record for `CN1CCN2c3c(cccc31)[C@@H]1CN(CCCC(=O)c3ccc(F)cc3)CC[C@@H]12` , report its Tmax. 1 h
